Ref: ChEMBL document CHEMBL4350956

- tested.target: Prostaglandin F2-alpha receptor (Mus musculus) (UniProt P43117)
- Sequence (P43117 whole entry): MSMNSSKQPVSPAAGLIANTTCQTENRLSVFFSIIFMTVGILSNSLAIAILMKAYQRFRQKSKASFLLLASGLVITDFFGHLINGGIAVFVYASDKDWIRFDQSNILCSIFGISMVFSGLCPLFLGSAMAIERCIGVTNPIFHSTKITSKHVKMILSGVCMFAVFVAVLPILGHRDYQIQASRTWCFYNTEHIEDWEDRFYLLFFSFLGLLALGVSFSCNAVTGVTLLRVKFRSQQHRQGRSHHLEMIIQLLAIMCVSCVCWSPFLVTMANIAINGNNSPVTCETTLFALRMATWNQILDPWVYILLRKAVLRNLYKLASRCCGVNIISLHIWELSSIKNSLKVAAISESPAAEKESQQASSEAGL
- method.notes: Allosteric modulator activity at prostaglandin F2alpha receptor in CD-1 mouse myometrial strips assessed as inhibition of PGF2alpha- induced contraction at 10 uM pre-incubated for 20 mins followed by PGF2alpha challenge
Activity calls are given as the source filed them. The rule behind the calls is not given here. Non-standard residues stand in square brackets, D forms with d. Residues, ends and D or L forms follow the SMILES beside them. *: point of attachment. Pro(cis-4-F) = O=C(O)[C@@H]1C[C@H](F)CN1; Pro(4R-NH2) = N[C@H]1CN[C@H](C(=O)O)C1; 3Pal = N[C@@H](Cc1cccnc1)C(=O)O; β3hF = N[C@H](CC(=O)O)Cc1ccccc1; PhAc = O=C(Cc1ccccc1)*; azaGly = NNC(=O)O
quantity.name: inhibition

The examples below pair each entry with its known result.
{"compound": "O=C(O)C[C@H](Cc1ccccc1)NC(=O)[C@H](Cc1cccnc1)NC(=O)[C@@H]1CCC2=C(c3ccc(OC(F)(F)F)cc3)C[C@H](NC(=O)Cc3ccccc3)C(=O)N21", "quantity.name": "inhibition", "test.result": "inactive"}
{"compound": "O=C(O)C[C@H](Cc1ccccc1)NC(=O)[C@H](Cc1cccnc1)NC(=O)[C@@H]1CCCN1C(=O)N(Cc1cn(-c2ccc(F)cc2)nn1)NC(=O)Cc1ccccc1", "quantity.name": "inhibition", "test.result": "inactive"}
{"compound": "N[C@@H]1C[C@@H](C(=O)N[C@@H](Cc2cccnc2)C(=O)N[C@H](CC(=O)O)Cc2ccccc2)N(C(=O)NNC(=O)Cc2ccccc2)C1 (PhAc-[azaGly][Pro(4R-NH2)][3Pal][β3hF]-OH)", "quantity.name": "inhibition", "test.result": "Active"}
{"compound": "O=C(O)C[C@H](Cc1ccccc1)NC(=O)[C@H](Cc1cccnc1)NC(=O)[C@@H]1C[C@H](O)CN1C(=O)N(Cc1ccccc1)NC(=O)Cc1ccccc1", "quantity.name": "inhibition", "test.result": "inactive"}

Look up inhibition for the entries below, preserving their order.
1. O=C(O)C[C@H](Cc1ccccc1)NC(=O)[C@H](Cc1cccnc1)NC(=O)[C@@H]1C[C@@H](O)CN1C(=O)NNC(=O)Cc1ccccc1
2. O=C(O)C[C@H](Cc1ccccc1)NC(=O)[C@H](Cc1cccnc1)NC(=O)[C@@H]1C[C@H](F)CN1C(=O)NNC(=O)Cc1ccccc1 (PhAc-[azaGly][Pro(cis-4-F)][3Pal][β3hF]-OH)
3. C#CCN(NC(=O)Cc1ccccc1)C(=O)N1C[C@@H](O)C[C@H]1C(=O)N[C@@H](Cc1cccnc1)C(=O)N[C@H](CC(=O)O)Cc1ccccc1
4. O=C(O)C[C@H](Cc1ccccc1)NC(=O)[C@H](Cc1cccnc1)NC(=O)[C@@H]1CCCN1C(=O)N(Cc1ccccc1)NC(=O)Cc1ccccc1
5. C#CCN(NC(=O)Cc1ccccc1)C(=O)N1C[C@@H](F)C[C@H]1C(=O)N[C@@H](Cc1cccnc1)C(=O)N[C@H](CC(=O)O)Cc1ccccc1
6. O=C(O)C[C@H](Cc1ccccc1)NC(=O)[C@H](Cc1cccnc1)NC(=O)[C@@H]1CCCN1C(=O)N(CC#CCN1CCCCC1)NC(=O)Cc1ccccc1

1. inactive
2. Active
3. inactive
4. Active
5. inactive
6. inactive

Below are some compounds; for each one, tell me its inhibition.
1. COc1ccc(C2=C3CC[C@@H](C(=O)N[C@@H](Cc4cccnc4)C(=O)N[C@H](CC(=O)O)Cc4ccccc4)N3C(=O)[C@@H](NC(=O)Cc3ccccc3)C2)cc1
2. O=C(O)C[C@H](Cc1ccccc1)NC(=O)[C@H](Cc1cccnc1)NC(=O)[C@@H]1C[C@H](O)CN1C(=O)NNC(=O)Cc1ccccc1
3. O=C(O)C[C@H](Cc1ccccc1)NC(=O)[C@H](Cc1cccnc1)NC(=O)[C@@H]1C[C@H](F)CN1C(=O)N(Cc1ccccc1)NC(=O)Cc1ccccc1
4. N[C@H]1C[C@@H](C(=O)N[C@@H](Cc2cccnc2)C(=O)N[C@H](CC(=O)O)Cc2ccccc2)N(C(=O)N(Cc2ccccc2)NC(=O)Cc2ccccc2)C1
5. O=C(O)C[C@H](Cc1ccccc1)NC(=O)[C@H](Cc1cccnc1)NC(=O)[C@@H]1C[C@@H](F)CN1C(=O)N(Cc1ccccc1)NC(=O)Cc1ccccc1
6. O=C(O)C[C@H](Cc1ccccc1)NC(=O)[C@H](Cc1cccnc1)NC(=O)[C@@H]1C[C@@H](O)[C@H]2CC[C@H](NC(=O)Cc3ccccc3)C(=O)N21

inactive
inactive
inactive
Active
inactive
inactive

The following compounds each have a reported value; give each one's inhibition.
1. O=C(O)C[C@H](Cc1ccccc1)NC(=O)[C@H](Cc1cccnc1)NC(=O)[C@@H]1CCCN1C(=O)N(Cc1c(F)c(F)c(F)c(F)c1F)NC(=O)Cc1ccccc1
2. C#CCN(NC(=O)Cc1ccccc1)C(=O)N1C[C@H](O)C[C@H]1C(=O)N[C@@H](Cc1cccnc1)C(=O)N[C@H](CC(=O)O)Cc1ccccc1

1. inactive
2. Active

Dear colleague, could you send me inhibition for each of the items below? Thanks.
1. Nc1ccc(CC(=O)N[C@H]2CC[C@H]3CC[C@@H](C(=O)N[C@@H](Cc4cccnc4)C(=O)N[C@H](CC(=O)O)Cc4ccccc4)N3C2=O)cc1
2. Cc1ccc(CN(NC(=O)Cc2ccccc2)C(=O)N2CCC[C@H]2C(=O)N[C@@H](Cc2cccnc2)C(=O)N[C@H](CC(=O)O)Cc2ccccc2)cc1
3. CN(C)CC#CCN(NC(=O)Cc1ccccc1)C(=O)N1CCC[C@H]1C(=O)N[C@@H](Cc1cccnc1)C(=O)N[C@H](CC(=O)O)Cc1ccccc1

1: inactive; 2: inactive; 3: inactive

Hi, could you look up inhibition for each item in my list?
1. Cc1ccc(-n2cc(CN(NC(=O)Cc3ccccc3)C(=O)N3CCC[C@H]3C(=O)N[C@@H](Cc3cccnc3)C(=O)N[C@H](CC(=O)O)Cc3ccccc3)nn2)cc1
2. O=C(O)C[C@H](Cc1ccccc1)NC(=O)[C@H](Cc1cccnc1)NC(=O)[C@@H]1CCCN1C(=O)N(Cc1c[nH]nn1)NC(=O)Cc1ccccc1
3. C#CCN(NC(=O)Cc1ccccc1)C(=O)N1C[C@H](F)C[C@H]1C(=O)N[C@@H](Cc1cccnc1)C(=O)N[C@H](CC(=O)O)Cc1ccccc1

1. inactive
2. inactive
3. inactive

====

- tested.target: Prostaglandin F2-alpha receptor (Mus musculus)
- method.notes: Allosteric modulator activity at prostaglandin F2alpha receptor in CD-1 mouse myometrial strips assessed as inhibition of PGF2alpha- induced contraction at 1 uM pre-incubated for 20 mins followed by PGF2alpha challenge
The source made the active and inactive calls. The rule behind the calls is not given here.
Please answer using one outcome listed in active, inactive

Examples with answers:
{"smiles.input": "O=C(O)C[C@H](Cc1ccccc1)NC(=O)[C@H](Cc1cccnc1)NC(=O)[C@@H]1C[C@H](O)CN1C(=O)N(Cc1ccccc1)NC(=O)Cc1ccccc1", "tested.target": "Prostaglandin F2-alpha receptor (Mus musculus)", "group": "inactive"}
{"smiles.input": "O=C(O)C[C@H](Cc1ccccc1)NC(=O)[C@H](Cc1cccnc1)NC(=O)[C@@H]1CCC2=C(c3ccccc3)C[C@H](NC(=O)Cc3ccccc3)C(=O)N21", "tested.target": "Prostaglandin F2-alpha receptor (Mus musculus)", "group": "active"}

Continue with the molecule presented below.
Recorded call for O=C(O)C[C@H](Cc1ccccc1)NC(=O)[C@H](Cc1cccnc1)NC(=O)[C@@H]1CCCN1C(=O)N(Cc1cn(-c2ccc([N+](=O)[O-])cc2)nn1)NC(=O)Cc1ccccc1 ?
inactive

====

- tested.target: Prostaglandin F2-alpha receptor (Mus musculus) (UniProt P43117)
- method.notes: Allosteric modulator activity at prostaglandin F2alpha receptor in CD-1 mouse myometrial strips assessed as inhibition of PGF2alpha- induced contraction at 10 uM pre-incubated for 20 mins followed by PGF2alpha challenge
The source made the active and inactive calls. The rule behind the calls is not given here. Non-standard residues stand in square brackets, D forms with d. Residues, ends and D or L forms follow the SMILES beside them. *: point of attachment. Pro(trans-4-F) = O=C(O)[C@@H]1C[C@@H](F)CN1; 3Pal = N[C@@H](Cc1cccnc1)C(=O)O; β3hF = N[C@H](CC(=O)O)Cc1ccccc1; PhAc = O=C(Cc1ccccc1)*; azaGly = NNC(=O)O
Outcome field: choose from active, inactive

Consider the worked cases shown below.
{"molecule": "O=C(O)C[C@H](Cc1ccccc1)NC(=O)[C@H](Cc1cccnc1)NC(=O)[C@@H]1C[C@@H](O)CN1C(=O)N(Cc1ccccc1)NC(=O)Cc1ccccc1", "group": "inactive"}
{"molecule": "O=C(O)C[C@H](Cc1ccccc1)NC(=O)[C@H](Cc1cccnc1)NC(=O)[C@@H]1CCC2=C(c3ccccc3)C[C@H](NC(=O)Cc3ccccc3)C(=O)N21", "group": "active"}
{"molecule": "O=C(O)C[C@H](Cc1ccccc1)NC(=O)[C@H](Cc1cccnc1)NC(=O)[C@@H]1C[C@@H](F)CN1C(=O)NNC(=O)Cc1ccccc1 (PhAc-[azaGly][Pro(trans-4-F)][3Pal][β3hF]-OH)", "group": "inactive"}

What outcome does the record of this test show for O=C(O)C[C@H](Cc1ccccc1)NC(=O)[C@H](Cc1cccnc1)NC(=O)[C@@H]1CCCN1C(=O)N(Cc1ccc([N+](=O)[O-])cc1)NC(=O)Cc1ccccc1 ?
inactive

What about this molecule? N#Cc1ccc(C2=C3CC[C@@H](C(=O)N[C@@H](Cc4cccnc4)C(=O)N[C@H](CC(=O)O)Cc4ccccc4)N3C(=O)[C@@H](NC(=O)Cc3ccccc3)C2)cc1
inactive
